- test.description: titration
- Format: physicochemical
- condition.summary: 66% aqueous dimethylformamide
experimental.endpoint: pKa

compound	experimental.endpoint	data.value
CC(=O)OC1C(C)C(O)C=COC2(C)Oc3c(C)c(O)c4c(c3C2=O)C(=O)C(C)=C(NC(=O)C=CC=CC(C)C(O)C(C)C(O)C1C)C4=O (stereo not shown) [Factor S-1]	pKa	8

###

- System: Streptomyces spheroides NRRL 15600
- test.description: antibiotic sensitivity of the producing culture
- Type: cell-based
- Source text: In classifying the microorganism as a new strain of S. spheroides, the methods recommended by the International Streptomyces Project (ISP) for the characterization of Streptomyces species [E. B. Shirling and D. Gottlieb, "Methods of Characterization of Streptomyces species," Int. J. Syst. Bacteriol. 16(3), 313-340 (1966)] were followed along with certain supplementary tests.
Positions of bridges follow the written chain, without caps; N, C: chain ends. Non-standard residues stand in square brackets, D forms with d. Residues, ends and D or L forms follow the SMILES beside them. *: point of attachment. Ileψ(thiazoline)Cys = CC[C@H](C)[C@H](N)C1=N[C@H](C(=O)*)CS1; dOrn = NCCC[C@@H](N)C(=O)O
experimental.endpoint: resistance / sensitivity of the culture to antibiotic

compound	data.value
CC1(C)S[C@@H]2[C@H](NC(=O)Cc3ccccc3)C(=O)N2[C@H]1C(=O)O [penicillin G]	sensitive
NC[C@@H]1O[C@H](O[C@H]2[C@@H](O)[C@H](O[C@@H]3[C@@H](O)[C@H](N)C[C@H](N)[C@H]3O[C@H]3O[C@H](CN)[C@@H](O)[C@H](O)[C@H]3N)O[C@@H]2CO)[C@H](N)[C@@H](O)[C@@H]1O [neomycin]	sensitive
CO[C@@H]1[C@@H](OC(N)=O)[C@@H](O)[C@H](Oc2ccc3c(O)c(NC(=O)c4ccc(O)c(CC=C(C)C)c4)c(=O)oc3c2C)OC1(C)C [novobiocin]	sensitive
CC(=O)OCC1=C(C(=O)O)N2C(=O)[C@@H](NC(=O)Cc3cccs3)[C@H]2SC1 [cephalothin]	sensitive
CC[C@H](C)[C@H](N)C1=N[C@H](C(=O)N[C@@H](CC(C)C)C(=O)N[C@H](CCC(=O)O)C(=O)N[C@H](C(=O)N[C@H]2CCCCNC(=O)[C@H](CC(N)=O)NC(=O)[C@@H](CC(=O)O)NC(=O)[C@H](Cc3cnc[nH]3)NC(=O)[C@@H](Cc3ccccc3)NC(=O)[C@H]([C@@H](C)CC)NC(=O)[C@@H](CCCN)NC2=O)[C@@H](C)CC)CS1 [bacitracin] ({Ileψ(thiazoline)Cys}-L[dE]IK[dOrn]I[dF]H[dD]N; lactam 4-C)	sensitive
CCn1cc(C(=O)O)c(=O)c2ccc(C)nc21 [nalidixic acid]	resistant
CC[C@H]1OC(=O)[C@H](C)[C@@H](O[C@H]2C[C@@](C)(OC)[C@@H](O)[C@H](C)O2)[C@H](C)[C@@H](O[C@@H]2O[C@H](C)C[C@H](N(C)C)[C@H]2O)[C@](C)(O)C[C@@H](C)C(=O)[C@H](C)[C@@H](O)[C@]1(C)O [erythromycin]	sensitive
[H]/N=C(/N)N[C@H]1[C@H](O)[C@@H](O)[C@H](O[C@@H]2O[C@@H](C)[C@](O)(C=O)[C@H]2O[C@@H]2O[C@@H](CO)[C@H](O)[C@@H](O)[C@@H]2NC)[C@@H](N/C(N)=N\[H])[C@@H]1O [streptomycin]	sensitive
CN[C@H](CC(C)C)C(=O)N[C@H]1C(=O)N[C@@H](CC(N)=O)C(=O)N[C@H]2C(=O)N[C@H]3C(=O)N[C@H](C(=O)N[C@H](C(=O)O)c4cc(O)cc(O)c4-c4cc3ccc4O)[C@H](O)c3ccc(c(Cl)c3)Oc3cc2cc(c3O[C@@H]2O[C@H](CO)[C@@H](O)[C@H](O)[C@H]2O[C@H]2C[C@](C)(N)[C@H](O)[C@H](C)O2)Oc2ccc(cc2Cl)[C@H]1O [vancomycin]	sensitive
O=C(N[C@H](CO)[C@H](O)c1ccc([N+](=O)[O-])cc1)C(Cl)Cl [Chloramphenicol]	resistant
Nc1ccc(S(=O)(=O)Nc2ncccn2)cc1 [sulfadiazine]	sensitive
CO[C@H]1/C=C/O[C@@]2(C)Oc3c(C)c(O)c4c(O)c(c(/C=N/N5CCN(C)CC5)c(O)c4c3C2=O)NC(=O)/C(C)=C\C=C\[C@H](C)[C@H](O)[C@@H](C)[C@@H](O)[C@@H](C)[C@H](OC(C)=O)[C@@H]1C [Rifampin, reference compound]	resistant
CN(C)[C@@H]1C(O)=C(C(N)=O)C(=O)[C@@]2(O)C(O)=C3C(=O)c4c(O)cccc4[C@@](C)(O)[C@H]3C[C@@H]12 [tetracycline]	sensitive
CCC[C@@H]1C[C@@H](C(=O)N[C@@H]([C@H]2O[C@H](SC)[C@H](O)[C@@H](O)[C@H]2O)[C@@H](C)O)N(C)C1 [lincomycin]	resistant
